Molecular target: UniProt P04070
Sequence (P04070 43-197 limits assumed): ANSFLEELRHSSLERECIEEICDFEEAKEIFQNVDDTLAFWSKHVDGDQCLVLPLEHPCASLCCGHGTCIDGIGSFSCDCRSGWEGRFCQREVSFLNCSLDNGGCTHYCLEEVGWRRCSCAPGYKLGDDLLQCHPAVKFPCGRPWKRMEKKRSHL
Sequence (P04070 212-461 limits assumed): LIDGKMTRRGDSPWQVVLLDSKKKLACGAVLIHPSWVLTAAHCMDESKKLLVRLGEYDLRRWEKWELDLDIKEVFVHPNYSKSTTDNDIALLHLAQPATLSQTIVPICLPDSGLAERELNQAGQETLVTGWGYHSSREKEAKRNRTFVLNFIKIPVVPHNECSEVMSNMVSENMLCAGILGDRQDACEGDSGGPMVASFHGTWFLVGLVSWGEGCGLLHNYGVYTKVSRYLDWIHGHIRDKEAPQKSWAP
pKd: −log10 of the molar value.
MEASURED METRIC: pKd

1) CCCCCC(=O)OC[C@H](COP(=O)(O)OC[C@H](N)C(=O)O)OC(=O)CCCCC ... ~6.00

---

Molecular target: factor IXa (Homo sapiens)
Construct: intrinsic tryptophan fluorescence of factor IXa
Sequence (P00740 47-191 limits assumed): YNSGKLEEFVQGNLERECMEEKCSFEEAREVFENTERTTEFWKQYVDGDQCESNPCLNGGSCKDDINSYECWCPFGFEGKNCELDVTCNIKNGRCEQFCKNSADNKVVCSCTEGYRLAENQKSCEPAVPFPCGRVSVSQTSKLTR
Sequence (P00740 227-461 limits assumed): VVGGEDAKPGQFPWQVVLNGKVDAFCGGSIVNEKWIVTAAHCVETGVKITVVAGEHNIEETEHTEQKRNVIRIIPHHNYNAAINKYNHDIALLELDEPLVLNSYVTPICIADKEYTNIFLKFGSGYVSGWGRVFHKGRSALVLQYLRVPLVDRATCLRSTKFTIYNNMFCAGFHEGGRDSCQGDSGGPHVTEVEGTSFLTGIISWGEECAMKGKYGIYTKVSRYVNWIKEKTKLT
Experiment: Binding of C6PS to Factor IXa detected by intrinsic fluorescence
Settings: 0.20 μM factor IXa, 5 mM calcium, 22° C., single binding site model; read-out: stoichiometric Kd of C6PS binding to factor IXa
pKd: −log10 of the molar value.
MEASURED METRIC: pKd

1) CCCCCC(=O)OC[C@H](COP(=O)(O)OC[C@H](N)C(=O)O)OC(=O)CCCCC ... ~5.89
